- Tested on: unanaesthetized, hypertension-suffering rat
- experimental.details: Antihypertensive activity (systolic arterial pressure), oral
- Type: in vivo
- test.context: 60 mg/kg, hypertensive rat, 3 hours
assay.endpoint: ANTIHYPERTENSIVE ACTIVITY

INSERT INTO assay_data (molecule, result) VALUES
  ('CC(NCCOc1ccccc1)C(O)c1ccc2c(c1)SCCS2 (centres unmarked)', '+ ++');

----------
- experimental.details: Acute toxicity, oral, LD50 (Litchfield and Wilcoxon)
- test.context: mouse, in vivo, fasted male mice, confidence limits p=95% in brackets
assay.endpoint: LD50 (mg/kg)
Give the quantity in mg/kg, number only.

INSERT INTO results (compound, assay_endpoint, unit_label, readout_number) VALUES
  ('CC(C(O)c1ccc2c(c1)CCC2)N1CCC(c2ccccc2)CC1 (centres unmarked) [No 174]', 'LD50', 'mg/kg', 2150);

Now examine the next entry.
Enquiry: Form field: reported LD50 of CC(C)NC(C)C(O)c1ccc2c(c1)CCCCS2 (centres unmarked) [No 38]
Return: 240
